- measuredOn: GABA-A receptor; anion channel
- testDetails: Binding affinity to GABAA receptor (unknown origin) assessed as inhibition constant
reportedProperty: pKi
Lab note: report pKi as minus log10 of the concentration in molar units, number only.

Lab note: measured pKi of `CC(=O)[C@H]1CC[C@H]2[C@@H]3CC[C@H]4C[C@](C)(O)CC[C@]4(C)[C@H]3CC[C@]12C` was 6.10

----------
- measuredOn: Lanosterol 14-alpha demethylase (Candida albicans (strain SC5314 / ATCC MYA-2876) (Yeast))
- Sequence (P10613 whole entry): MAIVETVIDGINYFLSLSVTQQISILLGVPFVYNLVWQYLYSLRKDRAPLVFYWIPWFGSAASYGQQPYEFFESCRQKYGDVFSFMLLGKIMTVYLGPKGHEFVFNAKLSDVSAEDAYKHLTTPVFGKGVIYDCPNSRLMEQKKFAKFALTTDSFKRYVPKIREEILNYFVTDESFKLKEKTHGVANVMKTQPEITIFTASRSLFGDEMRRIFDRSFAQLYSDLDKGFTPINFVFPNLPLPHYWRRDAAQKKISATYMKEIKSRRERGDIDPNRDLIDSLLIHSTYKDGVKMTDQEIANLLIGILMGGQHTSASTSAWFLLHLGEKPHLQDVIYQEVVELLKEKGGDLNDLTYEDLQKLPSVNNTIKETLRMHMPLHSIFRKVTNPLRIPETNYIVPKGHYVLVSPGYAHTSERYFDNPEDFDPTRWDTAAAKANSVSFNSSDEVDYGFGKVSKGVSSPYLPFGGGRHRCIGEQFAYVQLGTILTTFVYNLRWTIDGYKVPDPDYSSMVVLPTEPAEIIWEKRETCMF
- testDetails: Binding affinity to Candida albicans SC5314 CYP51 assessed as dissociation constant
pKd: −log10 of the molar value.
reportedProperty: pKd

Lab note: measured pKd of `O[C@@](Cn1cnnn1)(c1ccc(F)cc1F)C(F)(F)c1ccc(-c2ccc(OCC(F)(F)F)cc2)cn1` was ≥ 7.41
